- Tested on: U-251
- procedureSummary: NCI tumour cell line growth inhibition, 48 h
The source made the active and inactive calls. Rule as the data show it: active = GI50 up to about 1.1 µM and inactive = higher.
Hi there, use one of these labels in your reply, thanks! label 1 for active, label 0 for inactive

molecule="O=C(O)CC(Cc1ccccc1)C(=O)O (configuration not stated)" classassignment="label 0"
molecule=CCCc1ccc(OCC(=O)N/N=C/c2c(-c3ccccc3)[nH]c3ccccc23)cc1 classassignment="label 0"
molecule=CC1(C)Cc2c(sc3[nH]c(=S)[nH]c(=S)c23)CS1 classassignment="label 0"

Would you kindly look at the next entry?
Test call, this molecule: C=CCOC(=O)CCCCCCCCCCCCCCCOC(=O)c1c(CCC[C@@H](C)O[Si](C)(C)C(C)(C)C)nc([O-])[n+]2c1CC[C@H]2CC1(CC/C=C\[C@H](CC)O[Si](C(C)C)(C(C)C)C(C)C)OCCO1
label 0

----------
- System: TK-10
- procedureSummary: NCI tumour cell line growth inhibition, 48 h
Calls of active or inactive are those of the source. Cut-off read from the data, not from the text of the source: active = GI50 up to about 1.1 µM and inactive = higher.
measuredParameter: GI50

molecule=CCOc1cccc2ccc[n+](CC)c12 studysystem=TK-10 measuredparameter=GI50 recordedresult="> 100 µM (inactive)"
molecule=C=C1[C@H](OC(=O)C(C)C)[C@@H](OC(C)=O)[C@@H](OC(C)=O)C(C)(C)[C@@H]2O[C@H]2[C@@H](C)C(=O)[C@@]2(OC(C)=O)C[C@@](C)(OC(C)=O)[C@H](OC(C)=O)[C@@H]2[C@H]1OC(C)=O studysystem=TK-10 measuredparameter=GI50 recordedresult="> 100 µM (inactive)"
molecule=COc1cc(CCCl)c(CC2=NCCc3cc(OC)c(OC)cc32)cc1OC studysystem=TK-10 measuredparameter=GI50 recordedresult="30.2 µM (inactive)"
molecule="Fc1ccc2c(c1)nc1n2C(c2c(Cl)cccc2Cl)SC1 (configuration not stated)" studysystem=TK-10 measuredparameter=GI50 recordedresult="17.5 µM (inactive)"
molecule="CC(C)c1ccc(C2C3=C(N=C4SCC(=O)N42)C(=O)c2ccccc23)cc1 (configuration not stated)" studysystem=TK-10 measuredparameter=GI50 recordedresult="> 100 µM (inactive)"

What does the data say about its GI50? Entry: COc1cccc(CCCNC(=O)Cc2ccccc2CO)c1
> 100 µM (inactive)

Now give it for COCN1C(N)=C(C(=O)OC(C)(C)C)C2=CC(=O)C=CC21C (configuration not stated) too.
13.4 µM (inactive)

Now give it for CCn1c2c(n(CC)c1=S)-c1c(n(CC)c(=S)n1CC)SSSS2 too.
15.2 µM (inactive)

Now give it for O=C(O)c1ccc(Nc2ccnc3cc(Cl)ccc23)cc1O too.
61.4 µM (inactive)

----------
- Tested on: TK-10
- procedureSummary: NCI tumour cell line growth inhibition, 48 h
The source made the active and inactive calls. Cut-off read from the data, not from the text of the source: active = GI50 up to about 1.1 µM and inactive = higher.
Hi there, use one of these labels in your reply, thanks! Y (active), N (inactive)

Test call, this compound: OC12CC3c4ccccc4NC3C3Oc4cccc5c4C31CCN(CC1CC1)C2C5 (stereo unspecified)
N

Now give it for O=c1[nH][nH]c(=O)n1Cc1cccc(Cn2c(=O)[nH][nH]c2=O)c1 too.
N

Now give it for COc1cc(/C=C2\C(=O)N(Cc3ccccc3)C(c3ccccc3)S2(=O)=O)cc(OC)c1OC (stereo unspecified) too.
N

Now give it for Cn1c(=O)c2c(nc3n2CCC(=O)N3CCCCl)n(C)c1=O too.
N

Now give it for OC(c1cccnc1)C(F)(F)c1nc2ccccc2o1 (stereo unspecified) too.
N

----------
- System: HCT-15
- procedureSummary: NCI tumour cell line growth inhibition, 48 h
measuredParameter: GI50 (µM)
Entry rule: numbers only, all in µM.

Sample answers from the record:
compound="Nc1ncc(N)c(NCC2(CO)CC(CCc3ccccc3)C2)n1 (stereo not given)" recordedresult=13.9
compound=Cc1cc2nc(N3C(=O)/C(=C/c4ccc(N(C)C)cc4)N=C3c3ccccc3)sc2cc1C recordedresult=32.5
compound="C=C1C(=O)OC2C/C(C)=C/CC/C(C)=C/CCC3(COC(C)=O)OC3CC12 (stereo not given)" recordedresult=2.81
compound=CCCc1ccc(OCC(=O)N/N=C/c2c(-c3ccccc3)[nH]c3ccccc23)cc1 recordedresult=4.99
compound=C1=Nc2sc3c(c2C2=NCCN12)CCCC3 recordedresult=16.4

What does the data say about its GI50? Entry: COC1/C=C\C=C(/C)C(=O)NC2=CC(=O)C(O)=C(CC(C)CC(OC)C(O)C(C)/C=C(\C)C1OC(N)=O)C2=O (stereo not given)
2.26

Now give it for COc1cc(NC(C)c2ccc3c(c2)OCCO3)cc(OC)c1OC (stereo not given) too.
24.4

Now give it for Cc1ccccc1NC(=O)C(=O)C(C#N)c1ccc(Cl)cc1 (stereo not given) too.
18.7

Now give it for COc1ccc2nc(-c3cccc(N(C)C)c3)cc(O)c2c1 too.
0.317

Now give it for O=C1C=CC(O)C2C1CC13SSC4(CC5C(=O)C=CC(O)C5N4C1=O)C(=O)N23 (stereo not given) too.
0.14

Now give it for O=C(Nc1ccccc1C(=O)NC(=O)c1ccccc1NC(=O)c1ccccc1)c1ccccc1 too.
16.9

----------
- Tested on: Malme-3M
- procedureSummary: NCI tumour cell line growth inhibition, 48 h
The source made the active and inactive calls. No stated cut-off is given here; in the data, active = GI50 up to about 1.1 µM and inactive = higher.
measuredParameter: GI50

Sample answers from the record:
compound=C[Si](C)(C)c1ccc(-c2c3ccc(-c4cc(Br)cc(Br)c4)nc3nc3nc(-c4cc(Br)cc(Br)c4)ccc23)cc1 studysystem=Malme-3M recordedresult="> 100 µM (inactive)"
compound=O=c1c2ccc(Cl)cc2oc2c(CNc3ccc(S(=O)(=O)Nc4ncccn4)cc3)cccc12 studysystem=Malme-3M recordedresult="> 100 µM (inactive)"
compound=Clc1ccccc1-c1nnc2c(-c3ccccc3)nc3ccccc3n12 studysystem=Malme-3M recordedresult="61.7 µM (inactive)"

What does the data say about its GI50? Entry: CN(C)N1C(=O)c2ccccc2NC1c1ccccc1 (configuration not stated)
> 100 µM (inactive)

----------
- Tested on: MCF7
- procedureSummary: NCI tumour cell line growth inhibition, 48 h
Active and inactive are the calls of the source. Rule as the data show it: active = GI50 up to about 1.1 µM and inactive = higher.
Hi there, use one of these labels in your reply, thanks! 1 (active), 0 (inactive)

Test call, this molecule: Cn1c(SCc2ccc([N+](=O)[O-])cc2)nnc1C12CC3CC(CC(C3)C1)C2
0

Now give it for COc1cc(NC(C)c2ccc3c(c2)OCCO3)cc(OC)c1OC (centres undefined) too.
0

----------
- Tested on: EKVX
- procedureSummary: NCI tumour cell line growth inhibition, 48 h
Active and inactive are the calls of the source. No stated cut-off is given here; in the data, active = GI50 up to about 1.1 µM and inactive = higher.
Hi there, use one of these labels in your reply, thanks! label 1 for active, label 0 for inactive

Please review the following examples before continuing.
compound=CC1(C)O[C@@H](CCl)C[C@@H](C#N)O1 classassignment="label 0"
compound=O=NN(CCCl)C(=O)N[C@H]1CC[C@@H](C(=O)O)CC1 classassignment="label 0"
compound=O=C1c2cccc([N+](=O)[O-])c2C(=O)N1c1ncn[nH]1 classassignment="label 0"
compound=CNc1c2cccc(C)c2nc2c(C(=O)NCCN(C)C)cccc12 classassignment="label 1"
compound=COC(=O)c1cccc2cccc(C(=O)Nc3ccc(Cl)cc3)c12 classassignment="label 0"

Would you kindly look at the next entry?
Test call, this compound: CC(=O)OCC(OC(C)=O)C1C[C@H]2O[C@@H]3[C@H](C[C@H]2O1)O[C@@]1(C[C@@H]3C)C[C@H](C)[C@@H]2O[C@]3(C[C@@H]2O1)C[C@H]1O[C@H]2[C@H](C)[C@H]4OC(=O)C[C@H]5CC[C@@H]6OC7[C@H]8O[C@]9(CC[C@H]%10CC(=O)[C@H](CC[C@H]%11C[C@@H](C)C(=O)C(C[C@@H]4O[C@H]2C[C@H]1O3)O%11)O%10)CC8O[C@@H]7[C@@H](O9)[C@H]6O5 (stereo partly drawn)
label 1

----------
- System: NCI-H460
- procedureSummary: NCI tumour cell line growth inhibition, 48 h
The source made the active and inactive calls. No stated cut-off is given here; in the data, active = GI50 up to about 1.1 µM and inactive = higher.
measuredParameter: GI50

Sample answers from the record:
molecule="CC(C#N)Nc1ccc(Oc2ccc(C(C)(C)c3ccc(Oc4ccc(NC(C)C#N)cc4)cc3)cc2)cc1 (configuration not stated)" studysystem=NCI-H460 recordedresult="> 100 µM (inactive)"
molecule="O=C1N(c2ccccc2)C(=O)C2(SC=NN2Cc2ccccc2)N1c1ccccc1 (configuration not stated)" studysystem=NCI-H460 recordedresult="> 100 µM (inactive)"
molecule=CCN(CC)CCC(=O)c1ccc(Sc2ccc(F)cc2)cc1 studysystem=NCI-H460 recordedresult="17.7 µM (inactive)"
molecule="CC(C)(C)C1CCC2c3c([nH]c4ccccc34)C3C(=O)N(c4ccc(Br)cc4)C(=O)C3C2C1 (configuration not stated)" studysystem=NCI-H460 recordedresult="17.7 µM (inactive)"
molecule=CC(=O)/C(=C\I)c1ccccc1 studysystem=NCI-H460 recordedresult="11.2 µM (inactive)"

Which measured GI50 belongs to N#C/C(=C/c1cccc(Oc2ccccc2)c1)c1ccccc1 , tested on NCI-H460?
> 100 µM (inactive)

Now give it for Cc1ccc(/N=N/C(=N/NC(=O)c2cc(Cl)ccc2O)c2ccc(N(CCC#N)CCC#N)cc2C)cc1 too.
21.8 µM (inactive)
